- Test system: Colon cancer organoid
- assay-details: Optimized Dual-Glo assay to identify co-culture induced drug vulnerabilities using donated chemical probes and chemogenomics kinase set in O14 CRC organoid and F14 CAF mono and co-culture. […] Cell viability is reported both mono and co-culture models.
- Assay type: functional, Homo sapiens
- Parameters: dose or concentration left out as unconfirmed
- condition-label: Culture type Mono-Culture; Transduced with Renilla-dsRed lentivirus
parameter: Cell Viability (%)
A number alone suffices; assume %.

Here is how some compounds turned out for Cell Viability.
N#CC1(c2ccccn2)CCN(Cc2cc(C(=O)N3CCCC3)c(=O)n3ccccc23)CC1 | 86.9553
Cc1nc(C2CCN(C(=O)c3ccc(OC(F)(F)F)cc3N)CC2)c2ncc(N3CCN(C)CC3)cc2n1 | 92.5719

Q: Item: CC(C)(O)[C@H](F)CN1Cc2cc(NC(=O)c3cnn4cccnc34)c(N3CCOCC3)cc2C1=O Test system: Colon cancer organoid Read-out: Cell Viability Value: ?
Result: 78.3332

Q: Give the reported Cell Viability for CCc1cc2cc(NS(=O)(=O)c3ccc(C#N)cc3)ccc2n(CC)c1=O (system: Colon cancer organoid).
Result: 101.615

Q: Kindly state the measured Cell Viability obtained for COc1cc(OC)cc(-c2noc(N3CCN(C)C4(CCN(c5ccnc(C)c5)CC4)C3)n2)c1 with Colon cancer organoid.
Result: 98.8129

Q: Form entry - test system: Colon cancer organoid; read-out: Cell Viability; compound: CCCc1cc(C)[nH]c(=O)c1CNC(=O)c1cc(-c2ccc(N3CCN(C(C)C)CC3)nc2)cc2c1cnn2C(C)C
Result: 95.0739

Q: Provide the documented Cell Viability with Colon cancer organoid as the system for O=C(NCCCN1CCOC1=O)c1cnc(NCc2cc(Br)ccc2Br)nc1NC1CCCC1
Result: 136.857

###

- Tested on: Colon cancer organoid
- assay-details: Optimized Dual-Glo assay to identify co-culture induced drug vulnerabilities using donated chemical probes and chemogenomics kinase set in O06 CRC organoid and F06 CAF mono and co-culture. […] Cell viability is reported both mono and co-culture models.
- Type: functional, Homo sapiens
- Parameters: dose or concentration left out as unconfirmed
- condition-label: Culture type Mono-Culture; Transduced with Renilla-dsRed lentivirus
parameter: Cell Viability (%)
Please reply with the bare figure in % and do not write the unit itself.

O=C1c2ccc(Nc3ccc(F)cc3F)cc2CCc2ccc(OC[C@H](O)CO)cc21 [Skepinone-L] | 90.6486

Please find the next compound below.
Q: Fill in the blank: the reported Cell Viability of C[C@H](c1ccnc(Nc2nc3ccc(-c4cc(N(C)C)ncn4)cc3[nH]2)c1)N1CCN(C(=O)CC(F)(F)F)CC1 is ____.
Result: 96.3949

###

- Test system: Colon cancer organoid
- assay-details: Optimized Dual-Glo assay to identify co-culture induced drug vulnerabilities using donated chemical probes and chemogenomics kinase set in O06 CRC organoid and F06 CAF mono and co-culture. […] Cell viability is reported both mono and co-culture models.
- Format: functional, Homo sapiens
- Set-up: dose or concentration left out as unconfirmed
- condition-label: Culture type Co-Culture; Transduced with Renilla-dsRed lentivirus
Answer criterion not met if Cell Viability is under 90%, and criterion met if it is 90% or more.

Q: Dear colleague, could you confirm whether C[C@@H](c1cccc(CN)c1)n1cc(Cl)cc(C(N)=O)c1=N.Cl has Cell Viability at or above 90%?
Result: criterion met

###

- Test system: Colon cancer organoid
- assay-details: Optimized Dual-Glo assay to identify co-culture induced drug vulnerabilities using donated chemical probes and chemogenomics kinase set in O06 CRC organoid and F06 CAF mono and co-culture. […] Cell viability is reported both mono and co-culture models.
- Assay type: functional, Homo sapiens
- Set-up: dose or concentration left out as unconfirmed
- condition-label: Culture type Mono-Culture; Transduced with Renilla-dsRed lentivirus
parameter: Cell Viability (%)
Report the figure in % without appending any unit label.

Cl.Cn1cncc1[C@](O)(COc1ccc(C#N)cc1-c1ccc(OC(F)(F)F)cc1)c1ccc(C#N)cc1 | 58.9843
Cn1cc(-c2ccc3occ(-c4cccc(-c5ccncc5)c4)c3n2)cn1 | 110.377
CS(=O)(=O)N1CCN(Cc2cc3nc(-c4cccc5[nH]ncc45)nc(N4CCOCC4)c3s2)CC1 | 58.2983
Cc1ccc2[nH]c(CNCCCc3ccncc3)cc(=O)c2c1 [UCSF924NC] | 89.0396

Q: What does the data say about its Cell Viability? Entry: C[C@@H]1CCc2ncc(F)cc2[C@H]2CCCN2c2ccn3ncc(c3n2)C(=O)N1
Result: 120.583

Q: I am curious: what Cell Viability value has been reported for O=C(CCCCCCNC(=O)c1cnc(N(c2ccccc2)c2ccccc2)nc1)NO ?
Result: 158.366

Q: # input compound: COc1cc(OC)cc(-c2noc(N3CCN(C)C4(CCN(c5ccnc(C)c5)CC4)C3)n2)c1 ; wanted: its Cell Viability
Result: 97.7605

Q: Look up Cell Viability: CN(C)[C@H]1CN(C2CCc3cccc(F)c32)C[C@@H]1c1ccc(N2CCN(S(C)(=O)=O)CC2)cc1 (stereo partly drawn)
Result: 137.803

###

- Test system: Colon cancer organoid
- assay-details: Optimized Dual-Glo assay to identify co-culture induced drug vulnerabilities using donated chemical probes and chemogenomics kinase set in O06 CRC organoid and F06 CAF mono and co-culture. […] Cell viability is reported both mono and co-culture models.
- Assay type: functional, Homo sapiens
- Parameters: dose or concentration left out as unconfirmed
- condition-label: Culture type Mono-Culture; Transduced with Renilla-dsRed lentivirus
parameter: Cell Viability (%)
Use % as the unit, but write only the number.

Consider the worked cases shown below.
CC#CC(=O)N1CCC[C@H]1c1nc(-c2ccc(C(=O)Nc3ccccn3)cc2)c2c(N)nccn12 [ACALABRUTINIB] | 99.6421
O=C(O)c1ccc(-c2coc3ncc(-c4ccccc4)cc23)cc1Cl | 112.766
CN1CCN(Cc2cc(NC(=O)c3ccc4c(c3)CN(c3ccccc3)CC4)cc(C(F)(F)F)c2)CC1 | 105.467
Nc1nc(NCc2ccccc2)nc(-c2cccc(CO)c2)n1 [ZINC32547799] | 105.708
CCN(Cc1ccc(Cl)cc1)c1ncc(C(=O)NCCCN2CCCC2=O)c(NC2CCCC2)n1 | 120.519

Q: Which Cell Viability is listed for CNc1nc(Nc2cnn([C@H]3CCN(C4COC4)C[C@@H]3F)c2Cl)ncc1C(F)(F)F ?
Result: 108.44

Q: What value of Cell Viability has been reported for the following compound? C[C@@H]1CCN(C(=O)CC#N)C[C@@H]1N(C)c1ncnc2[nH]ccc12.O=C(O)CC(O)(CC(=O)O)C(=O)O [TOFACITINIB CITRATE]
Result: 114.62

Q: Name the recorded Cell Viability for CC(=O)Nc1c(F)cc(C(=O)N[C@H]2CC[C@H](O)CC2)cc1O[C@@H](C)c1ccccc1 [GSK046] .
Result: 140.24

###

Documented Cell Viability across a set of compounds
- Tested on: Colon cancer organoid
- assay-details: Optimized Dual-Glo assay to identify co-culture induced drug vulnerabilities using donated chemical probes and chemogenomics kinase set in O06 CRC organoid and F06 CAF mono and co-culture. […] Cell viability is reported both mono and co-culture models.
- Type: functional, Homo sapiens
- Set-up: dose or concentration left out as unconfirmed
- condition-label: Culture type Co-Culture; Transduced with Renilla-dsRed lentivirus
Report the value in % with no unit label.

CNCCN1CCC(c2cc(CN(C)C(=O)c3cccc(Oc4ccccc4)c3)ccn2)CC1 | 129.007
Cc1c(N2CCNCC2)nc2ccc(Br)cc2c1C(=O)NC[C@H](CCC(=O)O)c1ccccc1Cl | 70.4581
O=C(NCc1ccccc1)c1ccc(S(=O)(=O)NCc2ccccc2)cc1 | 107.944
CC[C@@H]1C(=O)N(C)c2cnc(Nc3ccc(C(=O)NC4CCN(C)CC4)cc3OC)nc2N1C1CCCC1 | 324.743
Cc1nccc(COC(=O)N2C[C@@H]3[C@@H](CNC(=O)c4ccc5[nH]nnc5c4)[C@@H]3C2)n1 | 128.292

Q: Request - read-out Cell Viability | tested on Colon cancer organoid | compound CC1(C)C(N)=Nc2cc(OCCCN3Cc4ccc(OCCc5cn(CC(=O)N6CCC(CCN7CCCC7)CC6)nn5)cc4C3)c(OCC3CC3)cc21
Result: 109.54

Q: Record lookup: for Colon cancer organoid, what Cell Viability belongs to Cn1nc(C(=O)NCc2ccc(C(=O)O)cc2)cc1-c1ccc2[nH]ccc2c1 ?
Result: 114.828

Q: Form field - read-out: Cell Viability; system: Colon cancer organoid; submitted item: COCCc1ccc(-c2c(C)nc3c(N4CCOCC4)ccnn23)cn1
Result: 88.7666

###

- Test system: Colon cancer organoid
- assay-details: Optimized Dual-Glo assay to identify co-culture induced drug vulnerabilities using donated chemical probes and chemogenomics kinase set in O14 CRC organoid and F14 CAF mono and co-culture. […] Cell viability is reported both mono and co-culture models.
- Format: functional, Homo sapiens
- Set-up: dose or concentration left out as unconfirmed
- condition-label: Culture type Mono-Culture; Transduced with Renilla-dsRed lentivirus
parameter: Cell Viability

Q: Reported Cell Viability, compound CCN1CCN(c2ccc(Nc3cc(N(C)C(=O)Nc4c(Cl)c(OC)cc(OC)c4Cl)ncn3)cc2)CC1 : ____
Result: 126.071%

Q: // Cell Viability lookup, key: O=C(NNS(=O)(=O)c1ccccc1)c1cc(-c2ccnnc2)ccc1F
Result: 91.9977%
